# System: NCI-H358 cells (K-Ras G12C)
# procedure-text: CellTiter-Glo cell viability, NCI-H358
# Assay type: cell-based, human
# particulars: Homo sapiens, NCI-H358, 120 h, K-Ras G12C, 5-day treatment; read-out: H358 Cell Viability IC50
observed-property: IC50

Answered examples (4):
INSERT INTO measurements (compound, experimental_system, observed_value) VALUES
  ('CCn1c(-c2cccnc2COC)c2c3cc(ccc31)-c1cc(O)cc(c1)C[C@H](NC(=O)[C@H](C(C)C)N(C)C(C)=O)C(=O)N1CCC[C@H](N1)C(=O)OCC(C)(C)C2 [Compound A55]', 'NCI-H358 cells (K-Ras G12C)', '1000 to 10000 nM'),
  ('CCn1c(-c2cccnc2[C@H](C)OC)c2c3cc(ccc31)-c1cc(O)cc(c1)C[C@H](NC(=O)[C@H](C(C)C)N(C)C(=O)[C@@H]1OCC[C@@H]1c1ccccc1)C(=O)N1CCC[C@H](N1)C(=O)OCC(C)(C)C2 [Compound A415]', 'NCI-H358 cells (K-Ras G12C)', '10 to 100 nM'),
  ('CCn1c(-c2cccnc2[C@H](C)OC)c2c3cc(ccc31)-c1csc(n1)C[C@H](NC(=O)[C@H](C(C)C)N(C)C(=O)N1CCC13COC3)C(=O)N1CCC[C@H](N1)C(=O)OCC(C)(C)C2 [Compound A560]', 'NCI-H358 cells (K-Ras G12C)', '10 to 100 nM'),
  ('CCn1c(-c2cccnc2[C@H](C)OC)c2c3cc(ccc31)-c1cc(O)cc(c1)C[C@H](NC(=O)[C@H](C(C)C)N(C)C(=O)[C@@H]1COC[C@@H]1N)C(=O)N1CCC[C@H](N1)C(=O)OCC(C)(C)C2 [Compound A418]', 'NCI-H358 cells (K-Ras G12C)', '100 to 1000 nM');

Read the next record carefully.
Determine its reported IC50: CCn1c(-c2cccnc2[C@H](C)OC)c2c3cc(ccc31)-c1csc(n1)C[C@H](NC(=O)[C@H](C(C)C)N(C)C(=O)N(C)CCc1ccncc1)C(=O)N1CCC[C@H](N1)C(=O)OCC(C)(C)C2 [Compound A557]
10 to 100 nM

====

# experimental-system: NRAS G12C (Homo sapiens (Human), UniProt P01111+P62937, G12C)
# Sequence (P01111 whole entry G12C): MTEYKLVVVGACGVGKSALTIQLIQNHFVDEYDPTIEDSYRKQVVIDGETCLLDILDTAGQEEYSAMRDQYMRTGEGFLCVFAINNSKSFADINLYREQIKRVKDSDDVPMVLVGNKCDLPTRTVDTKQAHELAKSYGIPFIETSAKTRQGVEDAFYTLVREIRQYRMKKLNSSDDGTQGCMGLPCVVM
# Sequence (P62937 whole entry): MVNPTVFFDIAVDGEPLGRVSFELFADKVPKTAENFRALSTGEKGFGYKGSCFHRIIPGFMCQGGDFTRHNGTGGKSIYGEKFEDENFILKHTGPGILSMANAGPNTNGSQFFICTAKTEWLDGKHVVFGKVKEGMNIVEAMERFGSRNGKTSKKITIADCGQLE
# procedure-text: Ras-Raf disruption/FRET/MOA assay, NRAS G12C
# Type: biochemical
# particulars: read-out: NRAS G12C FRET data IC50
pIC50: −log10 of the molar value.
observed-property: pIC50

Answered examples (2):
INSERT INTO measurements (compound, observed_property, observed_value) VALUES
  ('CCn1c(-c2cnccc2COC)c2c3cc(ccc31)-c1cc(O)cc(c1)C[C@H](NC(=O)[C@H](C(C)C)N(C)C(=O)[C@H]1CCN(C(=O)[C@@H]3CN3)C1)C(=O)N1CCC[C@H](N1)C(=O)OCC(C)(C)C2', 'pIC50', '7.00 to 8.00'),
  ('CCn1c(-c2cnccc2COC)c2c3cc(ccc31)-c1cc(O)cc(c1)C[C@H](NC(=O)[C@H](C(C)C)N(C)C(=O)[C@H]1CCN(C(=O)[C@@H]3CO3)C1)C(=O)N1CCC[C@H](N1)C(=O)OCC(C)(C)C2', 'pIC50', '6.00 to 7.00');

Consider the following items and state reported pIC50 for each.
1. CCn1c(-c2cccnc2COC)c2c3cc(ccc31)-c1cc(O)cc(c1)C[C@H](NC(=O)[C@H](C(C)C)N(C)C(=O)CCNC1=NCCO1)C(=O)N1CCC[C@H](N1)C(=O)OCC(C)(C)C2
2. CCn1c(-c2cnccc2COC)c2c3cc(ccc31)-c1cc(O)cc(c1)C[C@H](NC(=O)[C@H](C(C)C)N(C)C(=O)CCNC1=NCCO1)C(=O)N1CCC[C@H](N1)C(=O)OCC(C)(C)C2
3. CCn1c(-c2cccnc2[C@H](C)OC)c2c3cc(ccc31)-c1cc(O)cc(c1)C[C@H](NC(=O)[C@H](C(C)C)N1CCC3(CC(C(=O)[C@H]4CN4)C3)C1=O)C(=O)N1CCC[C@H](N1)C(=O)OCC(C)(C)C2 (some centres unmarked)

1. < 5.00
2. 6.00 to 7.00
3. > 8.00

====

Exercise: state measured IC50 for each of the molecules provided.
# experimental-system: NRAS WT (Homo sapiens (Human), UniProt P01111+P62937)
# Sequence (P01111 whole entry, one chain of several): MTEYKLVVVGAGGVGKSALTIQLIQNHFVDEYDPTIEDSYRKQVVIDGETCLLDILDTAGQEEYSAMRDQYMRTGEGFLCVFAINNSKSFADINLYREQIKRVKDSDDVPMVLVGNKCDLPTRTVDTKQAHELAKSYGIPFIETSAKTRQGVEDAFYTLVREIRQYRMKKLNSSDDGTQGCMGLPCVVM
# procedure-text: Ras-Raf disruption/FRET/MOA assay (BRAF RBD, Cyclophilin A)
# Format: biochemical

INSERT INTO assay_data (molecule, observed_value) VALUES
  ('CCn1c(-c2cccnc2[C@H](C)OC)c2c3cc(ccc31)-c1csc(n1)[C@@H](OC)[C@H](NC(=O)[C@H](C(C)C)N(C)C(=O)N(C)C)C(=O)N1CCC[C@H](N1)C(=O)OCC(C)(C)C2', '0.1 to 1 µM'),
  ('CCn1c(-c2cccnc2[C@H](C)OC)c2c3cc(ccc31)-c1cc(O)cc(c1)C[C@H](NC(=O)C1CCC3C1C3(F)F)C(=O)N1CCC[C@H](N1)C(=O)OCC(C)(C)C2 (stereo partly shown)', '1 to 10 µM'),
  ('CCn1c(-c2cccnc2[C@H](C)OC)c2c3cc(ccc31)-c1cc(CF)cc(c1)C[C@H](NC(=O)[C@H](C(C)C)N(C)C(=O)[C@@H]1OCC[C@@H]1c1ccccc1)C(=O)N1CCC[C@H](N1)C(=O)OCC(C)(C)C2', '0.1 to 1 µM');

Read the next record carefully.
Determine its reported IC50: `CCn1c(-c2cccnc2[C@H](C)OC)c2c3cc(ccc31)-c1csc(n1)C[C@H](NC(=O)[C@H](C(C)C)N(C)C(=O)N1CC(S(=O)(=O)N(C)C)C1)C(=O)N1CCC[C@H](N1)C(=O)OCC(C)(C)C2`
0.1 to 1 µM

====

# experimental-system: KRAS G12D (Homo sapiens (Human), UniProt P01116+P62937, G12D)
# Sequence (P01116 other isoform, or with tags, fused parts or gaps G12D, one chain of several): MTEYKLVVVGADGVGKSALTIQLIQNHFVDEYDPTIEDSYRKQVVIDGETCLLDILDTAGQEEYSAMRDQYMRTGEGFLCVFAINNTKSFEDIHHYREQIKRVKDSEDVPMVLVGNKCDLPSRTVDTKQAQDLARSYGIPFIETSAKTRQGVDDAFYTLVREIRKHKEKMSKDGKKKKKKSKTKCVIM
# procedure-text: Ras-Raf disruption/FRET/MOA assay (BRAF RBD, Cyclophilin A)
# Type: biochemical
# particulars: read-out: KRAS G12D FRET IC50
observed-property: IC50

Answered examples (8):
INSERT INTO results (compound, observed_property, observed_value) VALUES
  ('CCn1c(-c2cccnc2[C@H](C)OC)c2c3cc(ccc31)-c1cc(O)cc(c1)C[C@H](NC(=O)[C@@H]1[C@@H](C)CCCN1C(C)=O)C(=O)N1CCC[C@H](N1)C(=O)OCC(C)(C)C2 [Compound A324]', 'IC50', '1000 to 10000 nM'),
  ('CCn1c(-c2cccnc2[C@H](C)OC)c2c3cc(ccc31)-c1csc(n1)C[C@H](NC(=O)[C@H](C(C)C)N(C)C(=O)N1CC[C@@H]3CN(C)C[C@@H]31)C(=O)N1CCC[C@H](N1)C(=O)OCC(C)(C)C2 [Compound A470]', 'IC50', '1000 to 10000 nM'),
  ('CCn1c(-c2cccnc2[C@H](C)OC)c2c3cc(ccc31)-c1cc(O)cc(c1)C[C@H](NC(=O)[C@@H]1[C@H](C)CCN1C(C)=O)C(=O)N1CCC[C@H](N1)C(=O)OCC(C)(C)C2 [Compound A144]', 'IC50', '1000 to 10000 nM'),
  ('CCn1c(-c2cccnc2[C@H](C)OC)c2c3cc(ccc31)-c1csc(n1)C[C@H](NC(=O)[C@H](C(C)C)N(C)C(=O)N(C)C1(C)COC1)C(=O)N1CCC[C@H](N1)C(=O)OCC(C)(C)C2 [Compound A527]', 'IC50', '1000 to 10000 nM'),
  ('CCn1c(-c2cccnc2[C@H](C)OC)c2c3cc(ccc31)-c1cc(O)cc(c1)C[C@H](NC(=O)[C@H](C(C)C)N(C)C(=O)[C@H]1CCN(C(=O)[C@@H](C)N(C)C)C1)C(=O)N1CCC[C@H](N1)C(=O)OCC(C)(C)C2 [Compound A386]', 'IC50', '10 to 100 nM'),
  ('CCn1c(-c2cccnc2[C@H](C)OC)c2c3cc(ccc31)-c1cc(O)cc(c1)C[C@H](NC(=O)[C@H](C(C)C)N(C)C(=O)[C@H]1[C@@H]3CNC[C@@H]31)C(=O)N1CCC[C@H](N1)C(=O)OCC(C)(C)C2 [Compound A163]', 'IC50', '100 to 1000 nM'),
  ('CCn1c(-c2cccnc2[C@H](C)OC)c2c3cc(ccc31)-c1cc(O)cc(c1)C[C@H](NS(=O)(=O)c1ccc(O)cc1)C(=O)N1CCC[C@H](N1)C(=O)OCC(C)(C)C2 [Compound A195]', 'IC50', '> 10000 nM'),
  ('CCn1c(-c2cccnc2[C@H](C)OC)c2c3cc(ccc31)-c1csc(n1)C[C@H](NC(=O)[C@H](C(C)C)N(C)C(=O)N1CC(N)C1)C(=O)N1CCC[C@H](N1)C(=O)OCC(C)(C)C2 [Compound A343]', 'IC50', '100 to 1000 nM');

Read the next record carefully.
Determine its reported IC50: CCn1c(-c2cnccc2COC)c2c3cc(ccc31)-c1cc(O)cc(c1)C[C@H](NC(=O)[C@H](C(C)C)N(C)C(=O)[C@@H]1CNC[C@@H]1C(F)(F)F)C(=O)N1CCC[C@H](N1)C(=O)OCC(C)(C)C2 [Compound A79]
100 to 1000 nM
